Biological target: T1, ZFP SBS#757 (synthetic, UniProt P08047)
T1 chain: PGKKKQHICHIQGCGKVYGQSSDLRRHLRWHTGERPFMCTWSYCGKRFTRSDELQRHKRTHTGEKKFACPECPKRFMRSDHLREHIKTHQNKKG
Assay: EMSA
Conditions: tags: MBP fusion
PROPERTY_LABEL: Kd

>>> print(df.to_string())
                                     binder  value_observed
0  CGGGCGGCTG (dsDNA) DNA 1: CGGGCGGCTG DNA 2: CAGCCGCCCG         14.5 nM
